The reported measurements were obtained from patent US10047051B2.

biological target: CFTR-R117H (Homo sapiens, UniProt P13569, R117H); test: YFP-halide influx assay for the CFTR-R117H
Sequence (P13569 whole entry R117H): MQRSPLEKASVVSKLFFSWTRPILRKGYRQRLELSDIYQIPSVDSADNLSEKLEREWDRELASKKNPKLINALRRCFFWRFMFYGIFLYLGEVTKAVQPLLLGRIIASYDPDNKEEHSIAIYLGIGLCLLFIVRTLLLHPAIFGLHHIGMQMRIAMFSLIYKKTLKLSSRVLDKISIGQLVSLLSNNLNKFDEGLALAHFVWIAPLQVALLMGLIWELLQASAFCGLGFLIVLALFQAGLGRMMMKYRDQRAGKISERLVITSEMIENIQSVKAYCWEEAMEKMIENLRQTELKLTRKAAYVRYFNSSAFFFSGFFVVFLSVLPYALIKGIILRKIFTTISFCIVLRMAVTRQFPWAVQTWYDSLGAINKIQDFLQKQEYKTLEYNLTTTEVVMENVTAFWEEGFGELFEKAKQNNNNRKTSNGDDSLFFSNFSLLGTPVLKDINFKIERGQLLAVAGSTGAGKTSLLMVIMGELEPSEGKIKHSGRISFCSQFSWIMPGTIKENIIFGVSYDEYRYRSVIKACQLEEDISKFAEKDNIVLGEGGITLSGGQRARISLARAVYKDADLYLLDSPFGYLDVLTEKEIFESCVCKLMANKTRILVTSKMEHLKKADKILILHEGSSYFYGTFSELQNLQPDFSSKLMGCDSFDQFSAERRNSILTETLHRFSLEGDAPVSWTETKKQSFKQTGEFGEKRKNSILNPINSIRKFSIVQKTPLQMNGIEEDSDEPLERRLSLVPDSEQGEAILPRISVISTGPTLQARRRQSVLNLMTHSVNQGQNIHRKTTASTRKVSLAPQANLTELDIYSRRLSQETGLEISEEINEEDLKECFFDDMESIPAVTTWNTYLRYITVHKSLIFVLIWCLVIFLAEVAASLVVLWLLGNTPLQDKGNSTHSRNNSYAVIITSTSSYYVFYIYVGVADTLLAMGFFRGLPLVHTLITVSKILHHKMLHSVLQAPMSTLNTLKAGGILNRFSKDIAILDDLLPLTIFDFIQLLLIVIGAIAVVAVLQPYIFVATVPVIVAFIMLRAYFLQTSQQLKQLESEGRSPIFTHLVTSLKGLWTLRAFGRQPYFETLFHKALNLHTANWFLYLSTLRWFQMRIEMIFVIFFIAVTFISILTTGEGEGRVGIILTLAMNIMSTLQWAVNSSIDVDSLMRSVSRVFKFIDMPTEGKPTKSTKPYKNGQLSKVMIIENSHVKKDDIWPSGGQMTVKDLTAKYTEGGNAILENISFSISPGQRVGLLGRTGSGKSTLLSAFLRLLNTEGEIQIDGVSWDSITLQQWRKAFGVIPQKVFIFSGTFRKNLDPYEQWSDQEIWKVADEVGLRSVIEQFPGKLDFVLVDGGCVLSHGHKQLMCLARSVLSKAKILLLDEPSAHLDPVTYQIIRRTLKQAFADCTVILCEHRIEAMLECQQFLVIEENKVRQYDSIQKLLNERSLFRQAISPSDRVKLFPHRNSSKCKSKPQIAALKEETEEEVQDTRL
valueType: EC50 (nM)

[
  {
    "molecule": "CC(C)(O)CNC(=O)c1ncc(S(=O)(=O)c2ccc(OC(F)(F)F)cc2)cc1N",
    "EC50, nM": 598
  },
  {
    "molecule": "COC[C@H](O)CNC(=O)c1ncc(S(=O)(=O)c2ccc(C(F)(F)F)cc2)cc1N",
    "EC50, nM": 540
  },
  {
    "molecule": "Nc1cc(S(=O)(=O)c2ccc(C(F)(F)F)cc2)cnc1C(=O)NCCO",
    "EC50, nM": 765
  },
  {
    "molecule": "CC(C)(O)CNC(=O)c1ncc(S(=O)(=O)c2ccc(C(F)(F)F)cc2)cc1N",
    "EC50, nM": 296
  },
  {
    "molecule": "Nc1cc(S(=O)(=O)c2ccc(C(F)(F)F)cc2)cnc1C(=O)N1CC(OCC(F)F)C1",
    "EC50, nM": 442
  }
]

(A) CC(O)(CNC(=O)c1ncc(S(=O)(=O)c2ccc(OC(F)(F)F)cc2)cc1N)C(F)(F)F (centres unmarked)
(B) CC(C)(C)C(O)CNC(=O)c1ncc(S(=O)(=O)c2ccc(OC(F)(F)F)cc2)cc1N (centres unmarked)
Which item exceeds the other in EC50, A or B ? Lab log: write the label of the selected item as the result.
B
(B: 431 nM, A: 231 nM)
